# STUDY_SYSTEM: cloned human or rodent CNS receptors, channels, and transporters (PDSP panel) (Homo sapiens, UniProt P28335)
# Construct: expressed in transfected cells
# Sequence (P28335 33-458): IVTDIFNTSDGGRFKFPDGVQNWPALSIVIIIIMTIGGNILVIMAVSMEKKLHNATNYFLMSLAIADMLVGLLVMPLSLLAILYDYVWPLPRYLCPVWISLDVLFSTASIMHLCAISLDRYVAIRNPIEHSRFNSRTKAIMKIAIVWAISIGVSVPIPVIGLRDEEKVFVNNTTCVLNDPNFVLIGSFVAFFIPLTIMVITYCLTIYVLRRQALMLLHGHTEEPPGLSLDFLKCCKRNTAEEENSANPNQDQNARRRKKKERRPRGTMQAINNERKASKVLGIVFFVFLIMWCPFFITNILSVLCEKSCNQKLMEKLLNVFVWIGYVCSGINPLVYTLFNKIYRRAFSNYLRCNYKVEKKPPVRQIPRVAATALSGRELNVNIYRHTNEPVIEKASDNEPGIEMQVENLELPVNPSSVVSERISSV
# EXPERIMENTAL_DETAILS: PDSP GPCR panel primary binding assays at 10 μM
# CONDITION: 5-HT2C; primary assay, replicate 3
MEASUREMENT_LABEL: Inhibition 3 (%)

molecule="CCC(=O)N1CCC(NC(=O)Nc2ccc(OC(F)(F)F)cc2)CC1 [UNC10302681A, TPPU]" measurement_label="Inhibition 3" obs_value=-1.96
molecule="CC(=O)N1CCC(NC(=O)NC23CC4CC(CC(C4)C2)C3)CC1 [UNC10302683A, AR9281]" measurement_label="Inhibition 3" obs_value=-20.61
molecule="CNc1nc(C)nc(N[C@H]2CCC[C@@H](C(=O)NCc3ccc(C#N)cc3C(F)(F)F)C2)n1 [UNC10302679A, GSK2256294A]" measurement_label="Inhibition 3" obs_value=-33.87
molecule="O=C(NC1CC1)C(=O)C(Cc1ccccc1)NC(=O)[C@H]1CCC(=O)N1Cc1ccccc1 (stereo partly shown) [UNC10302676A, ABT-957 (Alicapistat)]" measurement_label="Inhibition 3" obs_value=-2.94

###

Let's look at some molecules and their measured Mean %.
# STUDY_SYSTEM: cloned human or rodent CNS receptors, channels, and transporters (PDSP panel) (Homo sapiens, UniProt P11229)
# Construct: expressed in transfected cells
# Sequence (P11229 1-460): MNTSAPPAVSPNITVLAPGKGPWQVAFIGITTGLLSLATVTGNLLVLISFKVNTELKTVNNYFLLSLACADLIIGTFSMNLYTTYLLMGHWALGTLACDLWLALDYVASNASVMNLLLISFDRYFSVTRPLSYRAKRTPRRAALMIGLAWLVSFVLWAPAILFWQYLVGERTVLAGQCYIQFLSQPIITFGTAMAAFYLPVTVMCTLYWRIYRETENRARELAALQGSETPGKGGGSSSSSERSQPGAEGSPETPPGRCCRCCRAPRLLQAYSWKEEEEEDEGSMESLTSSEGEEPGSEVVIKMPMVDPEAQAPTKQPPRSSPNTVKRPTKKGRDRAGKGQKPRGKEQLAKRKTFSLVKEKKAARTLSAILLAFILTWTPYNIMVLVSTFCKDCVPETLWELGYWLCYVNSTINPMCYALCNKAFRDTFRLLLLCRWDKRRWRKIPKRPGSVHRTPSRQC
# EXPERIMENTAL_DETAILS: PDSP GPCR panel primary binding assays at 10 μM
# CONDITION: M1; primary assay, mean inhibition
MEASUREMENT_LABEL: Mean % (%)

molecule="CNc1nc(C)nc(N[C@H]2CCC[C@@H](C(=O)NCc3ccc(C#N)cc3C(F)(F)F)C2)n1 [UNC10302679A, GSK2256294A]" measurement_label="Mean %" unit_annotation=% obs_value=-5.74
molecule="CCC(=O)N1CCC(NC(=O)Nc2ccc(OC(F)(F)F)cc2)CC1 [UNC10302681A, TPPU]" measurement_label="Mean %" unit_annotation=% obs_value=-5.22
molecule="CC(=O)N1CCC(NC(=O)NC23CC4CC(CC(C4)C2)C3)CC1 [UNC10302683A, AR9281]" measurement_label="Mean %" unit_annotation=% obs_value=7.62
molecule="O=C(NC1CC1)C(=O)C(Cc1ccccc1)NC(=O)[C@H]1CCC(=O)N1Cc1ccccc1 (some centres unmarked) [UNC10302676A, ABT-957 (Alicapistat)]" measurement_label="Mean %" unit_annotation=% obs_value=-5.83
molecule="O=c1oc2ccccc2cc1-c1cn2cc(Cc3ccc(F)cc3)sc2n1 [UNC10302680A, iMDK]" measurement_label="Mean %" unit_annotation=% obs_value=7.01

Data origin: paper PMC9005681
